Test system: KB (oral squamous)
experimentalProtocol: MTT cytotoxicity assay, 48 hours (Example 14)
Type: cell-based, human
recordedConditions: 10 nM
Non-standard residues stand in square brackets, D forms with d. Residues, ends and D or L forms follow the SMILES beside them. *: point of attachment. Octanoyl = CCCCCCCC(=O)*; Ac5c = NC1(C(=O)O)CCCC1; Deg = CCC(N)(CC)C(=O)O; Aib = CC(C)(N)C(=O)O; Butyryl = CCCC(=O)*
Quick reference for Percentage cytotoxicity among some molecules

CCCC(=O)N[C@H](Cc1ccccc1)C(=O)N[C@@H](CCC(N)=O)C(=O)N[C@@H](Cc1c[nH]c2ccccc12)C(=O)N[C@@H](C)C(=O)N[C@H](C(=O)NC(C)(C)C(=O)N[C@@H](Cc1c[nH]cn1)C(=O)N[C@@H](CC(C)C)C(N)=O)C(C)C [SEQ ID: 11] (Butyryl-[dF]QWAV[Aib]HL-NH2) ... 31.9 ± 3.1%

Query (molecule): CCC(CC)(NC(=O)[C@H](Cc1c[nH]c2ccccc12)NC(=O)[C@H](CCC(N)=O)NC(=O)[C@H](N)Cc1ccccc1)C(=O)N[C@H](C(=O)NCC(=O)N[C@@H](Cc1c[nH]cn1)C(=O)N[C@@H](CC(C)C)C(N)=O)C(C)C [SEQ ID: 9, D-Phe-Gln-Trp-Deg-Val-Gly-His-Leu-NH2] (H-[dF]QW[Deg]VGHL-NH2; N-terminus assumed) ; field requested: Percentage cytotoxicity 23.0 ± 2.1%

Same question for CC(C)C[C@H](NC(=O)[C@H](Cc1c[nH]cn1)NC(=O)C1(NC(=O)[C@@H](NC(=O)[C@H](C)NC(=O)[C@H](Cc2c[nH]c3ccccc23)NC(=O)[C@H](CCC(N)=O)NC(=O)[C@H](N)Cc2ccccc2)C(C)C)CCCC1)C(N)=O [SEQ ID: 10, D-Phe-Gln-Trp-Ala-Val-Ac5c-His-Leu-NH2] (H-[dF]QWAV[Ac5c]HL-NH2; N-terminus assumed) please. 27.3 ± 2.7%

Same question for CCCCCCCC(=O)N[C@H](Cc1ccccc1)C(=O)N[C@@H](CCC(N)=O)C(=O)N[C@@H](Cc1c[nH]c2ccccc12)C(=O)N[C@@H](C)C(=O)N[C@H](C(=O)NC(C)(C)C(=O)N[C@@H](Cc1c[nH]cn1)C(=O)N[C@@H](CC(C)C)C(N)=O)C(C)C [SEQ ID: 12] (Octanoyl-[dF]QWAV[Aib]HL-NH2) please. 18.6 ± 2.1%

====

Test system: PTC (colon)
experimentalProtocol: MTT cytotoxicity assay, 48 hours (Example 14)
Format: cell-based, human
recordedConditions: 10 nM
Non-standard residues stand in square brackets, D forms with d. Residues, ends and D or L forms follow the SMILES beside them. *: point of attachment. Octanoyl = CCCCCCCC(=O)*; Ac5c = NC1(C(=O)O)CCCC1; Deg = CCC(N)(CC)C(=O)O; Aib = CC(C)(N)C(=O)O; Butyryl = CCCC(=O)*
Quick reference for Percentage cytotoxicity among some compounds
Answer format: numeric, % implied, no suffix.

// known answers, use as guide
CCCC(=O)N[C@H](Cc1ccccc1)C(=O)N[C@@H](CCC(N)=O)C(=O)N[C@@H](Cc1c[nH]c2ccccc12)C(=O)N[C@@H](C)C(=O)N[C@H](C(=O)NC(C)(C)C(=O)N[C@@H](Cc1c[nH]cn1)C(=O)N[C@@H](CC(C)C)C(N)=O)C(C)C [SEQ ID: 11] (Butyryl-[dF]QWAV[Aib]HL-NH2) ... 25.7
CCCCCCCC(=O)N[C@H](Cc1ccccc1)C(=O)N[C@@H](CCC(N)=O)C(=O)N[C@@H](Cc1c[nH]c2ccccc12)C(=O)N[C@@H](C)C(=O)N[C@H](C(=O)NC(C)(C)C(=O)N[C@@H](Cc1c[nH]cn1)C(=O)N[C@@H](CC(C)C)C(N)=O)C(C)C [SEQ ID: 12] (Octanoyl-[dF]QWAV[Aib]HL-NH2) ... 20.7
CC(C)C[C@H](NC(=O)[C@H](Cc1c[nH]cn1)NC(=O)C1(NC(=O)[C@@H](NC(=O)[C@H](C)NC(=O)[C@H](Cc2c[nH]c3ccccc23)NC(=O)[C@H](CCC(N)=O)NC(=O)[C@H](N)Cc2ccccc2)C(C)C)CCCC1)C(N)=O [SEQ ID: 10, D-Phe-Gln-Trp-Ala-Val-Ac5c-His-Leu-NH2] (H-[dF]QWAV[Ac5c]HL-NH2; N-terminus assumed) ... 32.5

Query (compound): CCC(CC)(NC(=O)[C@H](Cc1c[nH]c2ccccc12)NC(=O)[C@H](CCC(N)=O)NC(=O)[C@H](N)Cc1ccccc1)C(=O)N[C@H](C(=O)NCC(=O)N[C@@H](Cc1c[nH]cn1)C(=O)N[C@@H](CC(C)C)C(N)=O)C(C)C [SEQ ID: 9, D-Phe-Gln-Trp-Deg-Val-Gly-His-Leu-NH2] (H-[dF]QW[Deg]VGHL-NH2; N-terminus assumed) ; field requested: Percentage cytotoxicity 26.8

====

System: PA-1 (ovary)
experimentalProtocol: MTT cytotoxicity assay, 72 hours (Example 13)
Format: cell-based, human
recordedConditions: PA-1, 100 PM
Non-standard residues stand in square brackets, D forms with d. Residues, ends and D or L forms follow the SMILES beside them. Aib = CC(C)(N)C(=O)O
parameter: Percent Cytotoxicity
Remember to quote the unit after the number.

// map CC(C)C[C@H](NC(=O)[C@H](Cc1c[nH]cn1)NC(=O)CNC(=O)[C@@H](NC(=O)C(C)(C)NC(=O)[C@H](Cc1c[nH]c2ccccc12)NC(=O)[C@H](CCC(N)=O)NC(=O)[C@H](N)Cc1ccccc1)C(C)C)C(N)=O [SEQ ID: 4, D-Phe-Gln-Trp-Aib-Val-Gly-His-Leu-NH2] (H-[dF]QW[Aib]VGHL-NH2; N-terminus assumed) to recorded Percent Cytotoxicity (system: PA-1 (ovary)) 12.6 ± 2.9%

====

System: HeP2 (laryngeal)
experimentalProtocol: MTT cytotoxicity assay, 48 hours (Example 14)
Assay type: cell-based
recordedConditions: HeP2, 1 μM
Non-standard residues stand in square brackets, D forms with d. Residues, ends and D or L forms follow the SMILES beside them. *: point of attachment. Octanoyl = CCCCCCCC(=O)*; Ac5c = NC1(C(=O)O)CCCC1; Deg = CCC(N)(CC)C(=O)O; Aib = CC(C)(N)C(=O)O; Butyryl = CCCC(=O)*
parameter: Percentage cytotoxicity

CCCC(=O)N[C@H](Cc1ccccc1)C(=O)N[C@@H](CCC(N)=O)C(=O)N[C@@H](Cc1c[nH]c2ccccc12)C(=O)N[C@@H](C)C(=O)N[C@H](C(=O)NC(C)(C)C(=O)N[C@@H](Cc1c[nH]cn1)C(=O)N[C@@H](CC(C)C)C(N)=O)C(C)C [SEQ ID: 11] (Butyryl-[dF]QWAV[Aib]HL-NH2) ... 21.9 ± 2.1%
CCC(CC)(NC(=O)[C@H](Cc1c[nH]c2ccccc12)NC(=O)[C@H](CCC(N)=O)NC(=O)[C@H](N)Cc1ccccc1)C(=O)N[C@H](C(=O)NCC(=O)N[C@@H](Cc1c[nH]cn1)C(=O)N[C@@H](CC(C)C)C(N)=O)C(C)C [SEQ ID: 9, D-Phe-Gln-Trp-Deg-Val-Gly-His-Leu-NH2] (H-[dF]QW[Deg]VGHL-NH2; N-terminus assumed) ... 21.6 ± 1.8%
CC(C)C[C@H](NC(=O)[C@H](Cc1c[nH]cn1)NC(=O)C1(NC(=O)[C@@H](NC(=O)[C@H](C)NC(=O)[C@H](Cc2c[nH]c3ccccc23)NC(=O)[C@H](CCC(N)=O)NC(=O)[C@H](N)Cc2ccccc2)C(C)C)CCCC1)C(N)=O [SEQ ID: 10, D-Phe-Gln-Trp-Ala-Val-Ac5c-His-Leu-NH2] (H-[dF]QWAV[Ac5c]HL-NH2; N-terminus assumed) ... 19.9 ± 1.5%

Please look at the following molecule next.
// map CCCCCCCC(=O)N[C@H](Cc1ccccc1)C(=O)N[C@@H](CCC(N)=O)C(=O)N[C@@H](Cc1c[nH]c2ccccc12)C(=O)N[C@@H](C)C(=O)N[C@H](C(=O)NC(C)(C)C(=O)N[C@@H](Cc1c[nH]cn1)C(=O)N[C@@H](CC(C)C)C(N)=O)C(C)C [SEQ ID: 12] (Octanoyl-[dF]QWAV[Aib]HL-NH2) to recorded Percentage cytotoxicity (system: HeP2 (laryngeal)) 28.7 ± 0.8%

====

Tested on: HuTu80 (Stomach)
experimentalProtocol: MTT cytotoxicity assay, 48 hours (Example 14)
Format: cell-based, human
recordedConditions: HuTu80, 1 nM
Non-standard residues stand in square brackets, D forms with d. Residues, ends and D or L forms follow the SMILES beside them. *: point of attachment. Octanoyl = CCCCCCCC(=O)*; Ac5c = NC1(C(=O)O)CCCC1; Deg = CCC(N)(CC)C(=O)O; Aib = CC(C)(N)C(=O)O; Butyryl = CCCC(=O)*
Quick reference for Percentage cytotoxicity among some molecules
Answer format: numeric, % implied, no suffix.

CCCCCCCC(=O)N[C@H](Cc1ccccc1)C(=O)N[C@@H](CCC(N)=O)C(=O)N[C@@H](Cc1c[nH]c2ccccc12)C(=O)N[C@@H](C)C(=O)N[C@H](C(=O)NC(C)(C)C(=O)N[C@@H](Cc1c[nH]cn1)C(=O)N[C@@H](CC(C)C)C(N)=O)C(C)C [SEQ ID: 12] (Octanoyl-[dF]QWAV[Aib]HL-NH2) ... 33.1
CC(C)C[C@H](NC(=O)[C@H](Cc1c[nH]cn1)NC(=O)C1(NC(=O)[C@@H](NC(=O)[C@H](C)NC(=O)[C@H](Cc2c[nH]c3ccccc23)NC(=O)[C@H](CCC(N)=O)NC(=O)[C@H](N)Cc2ccccc2)C(C)C)CCCC1)C(N)=O [SEQ ID: 10, D-Phe-Gln-Trp-Ala-Val-Ac5c-His-Leu-NH2] (H-[dF]QWAV[Ac5c]HL-NH2; N-terminus assumed) ... 23.3
CCC(CC)(NC(=O)[C@H](Cc1c[nH]c2ccccc12)NC(=O)[C@H](CCC(N)=O)NC(=O)[C@H](N)Cc1ccccc1)C(=O)N[C@H](C(=O)NCC(=O)N[C@@H](Cc1c[nH]cn1)C(=O)N[C@@H](CC(C)C)C(N)=O)C(C)C [SEQ ID: 9, D-Phe-Gln-Trp-Deg-Val-Gly-His-Leu-NH2] (H-[dF]QW[Deg]VGHL-NH2; N-terminus assumed) ... 28.0

Query (molecule): CCCC(=O)N[C@H](Cc1ccccc1)C(=O)N[C@@H](CCC(N)=O)C(=O)N[C@@H](Cc1c[nH]c2ccccc12)C(=O)N[C@@H](C)C(=O)N[C@H](C(=O)NC(C)(C)C(=O)N[C@@H](Cc1c[nH]cn1)C(=O)N[C@@H](CC(C)C)C(N)=O)C(C)C [SEQ ID: 11] (Butyryl-[dF]QWAV[Aib]HL-NH2) ; field requested: Percentage cytotoxicity 30.5
